B1: tRNA (parent)
chain: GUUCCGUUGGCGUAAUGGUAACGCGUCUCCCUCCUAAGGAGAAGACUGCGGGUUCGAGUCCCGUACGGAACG

Variants of: B1
experiment.description: yeast fitness relative to wild type (ratio to wild type); higher = fitter; tRNA-Arg(CCU), competitive growth, 37 C, YPD
This sample holds only a part of the variants without activity.
property.name: yeast fitness

Here are 5 variants together with their reported answers.
mutation.descriptor	property.name	observed.measurement
C5U A20C A40C C61U G68C	yeast fitness	≤ 0.5
C11A U13A A20G C61U A69C	yeast fitness	≤ 0.5
U28A C29A A37G	yeast fitness	≤ 0.5
U13G C27U C31U C34G A40G G63C	yeast fitness	≤ 0.5
G17A C30A A57U G58A	yeast fitness	≤ 0.5

Input: Please give the measured yeast fitness for this variant: G6A U16C C27G C33A G38C A42G
Output: ≤ 0.5

Input: Please give the measured yeast fitness for this variant: G48A G52C A57C C62A
Output: ≤ 0.5
